Listed here: items and their measured Kd.
- measurement target: Recombinant bovine HSC70 (Stressgen) (bovine) (UniProt P19120)
- Sequence (P19120 whole entry): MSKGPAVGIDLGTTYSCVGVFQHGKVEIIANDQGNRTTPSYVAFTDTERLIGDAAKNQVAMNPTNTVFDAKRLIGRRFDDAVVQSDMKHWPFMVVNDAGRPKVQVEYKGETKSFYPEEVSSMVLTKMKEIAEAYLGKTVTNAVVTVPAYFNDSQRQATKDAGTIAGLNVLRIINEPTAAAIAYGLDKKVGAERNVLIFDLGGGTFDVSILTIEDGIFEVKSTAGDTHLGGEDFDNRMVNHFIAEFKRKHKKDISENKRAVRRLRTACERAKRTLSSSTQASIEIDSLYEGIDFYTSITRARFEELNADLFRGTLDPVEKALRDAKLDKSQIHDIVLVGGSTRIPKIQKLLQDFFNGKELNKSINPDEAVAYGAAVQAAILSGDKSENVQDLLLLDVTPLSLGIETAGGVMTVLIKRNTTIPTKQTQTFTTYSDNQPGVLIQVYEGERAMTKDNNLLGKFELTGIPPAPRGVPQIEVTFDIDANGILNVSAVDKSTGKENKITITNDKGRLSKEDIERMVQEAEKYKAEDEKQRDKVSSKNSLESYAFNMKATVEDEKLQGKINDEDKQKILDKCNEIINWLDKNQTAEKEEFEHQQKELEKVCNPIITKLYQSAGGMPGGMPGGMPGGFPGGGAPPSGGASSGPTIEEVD
- experiment summary: SPR (BIAcore 3000), bovine HSC70 immobilized, peptide at 3.12 µM, 1:1 Langmuir fit
Where no end group is shown, it is not given here. [ ]: non-standard residue; d: D form. Met(O) = CS(=O)CC[C@H](N)C(=O)O; pS = N[C@@H](COP(=O)(O)O)C(=O)O
The reply should contain only the number, in µM.

Which Kd is listed for RIHMVYSKR[pS]GKPRGYAFIEY [P140 peptide (peptide consisting of SEQ ID NO: 1, in which serine at position 10 is phosphorylated)] ?
6.94

Here is the next item to consider.
Which Kd is listed for `RIH[Met(O)]VYSKR[pS]GKPRGYAFIEY` ?
1.91

Values from patent US20170226167A1
